Cited source for all entries: the supplement of paper PMC7125110

Recorded self-cleavage kobs at 640 uM GlcN6P, one value per entry.
B1: glmS ribozyme (parent)
chain: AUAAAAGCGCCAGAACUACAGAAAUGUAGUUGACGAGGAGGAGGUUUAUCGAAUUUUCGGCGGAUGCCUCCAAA

variants of: B1; assay: self-cleavage kobs at 640 uM GlcN6P; higher = faster cleavage; RNA array; settings: with glucosamine-6-phosphate
This sample holds only a part of the variants without activity.
Readout Type: self-cleavage kobs at 640 uM GlcN6P (s⁻¹)

In [3]: df
Out[3]:
         mutation_descriptor                         readout_type  units  op  test_result
 0                 A52U C67U  self-cleavage kobs at 640 uM GlcN6P    s⁻¹   =     7.82e-05
 1            A36U G41A U54G  self-cleavage kobs at 640 uM GlcN6P    s⁻¹   <        1e-05
 2                 A14G A33C  self-cleavage kobs at 640 uM GlcN6P    s⁻¹   =     3.41e-05
 3             A6G A64G C67G  self-cleavage kobs at 640 uM GlcN6P    s⁻¹   <        1e-05
 4            A36U G40U G60U  self-cleavage kobs at 640 uM GlcN6P    s⁻¹   <        1e-05
 5                 G66U C70A  self-cleavage kobs at 640 uM GlcN6P    s⁻¹   =     0.000101
 6  A14U G40C G44C U45C C70U  self-cleavage kobs at 640 uM GlcN6P    s⁻¹   <        1e-05
 7            A14G G35U A52U  self-cleavage kobs at 640 uM GlcN6P    s⁻¹   <        1e-05
 8                 G66A C71G  self-cleavage kobs at 640 uM GlcN6P    s⁻¹   =     0.000486
 9                 G13C G40U  self-cleavage kobs at 640 uM GlcN6P    s⁻¹   <        1e-05
10                 A52U U54G  self-cleavage kobs at 640 uM GlcN6P    s⁻¹   =     4.52e-05
11                 A14G C68G  self-cleavage kobs at 640 uM GlcN6P    s⁻¹   =     0.000123
